# maps each entry to its pEC50
Test system: Klotho gene expression
assay-method-text: Luciferase reporter assay to evaluate Klotho gene expression changes
Format: cell-based
stated-conditions: Homo sapiens, HEK293, HEK293 cells/pKlotho_Luc, overnight incubation, luciferase luminescence
# pEC50 is unitless: minus log10 of the molar concentration; print number only

Look over these answered cases.
{"molecule": "c1nc(NCCC2CCCC2)c2ncn(C3CC3)c2n1 [Compound 30]", "measurement-target": "Klotho gene expression", "pEC50": 5.92}
{"molecule": "C1=C(CCNc2ncnc3sccc23)CCCCC1 [Compound 9]", "measurement-target": "Klotho gene expression", "pEC50": 6.74}
{"molecule": "C1=C(CCNc2ncnc3c2cnn3-c2ccccc2)CCCC1 [Compound 15]", "measurement-target": "Klotho gene expression", "pEC50": 6.57}
{"molecule": "CC(C)(CNc1ncnc2c1ncn2C1CC1)C1=CCCCC1 [Compound 44]", "measurement-target": "Klotho gene expression", "pEC50": 4.62}
{"molecule": "Fc1ccccc1-n1ncc2c(NCCC3=CCCCC3)ncnc21 [Compound 4]", "measurement-target": "Klotho gene expression", "pEC50": 6.92}

Lookup: Consider the molecule shown here: c1nc(NCC2CCCCC2)c2ncn(C3CC3)c2n1 [Compound 33] What is its recorded pEC50?
Found: 6.42

Lookup: And what about the molecule C1=CCC(CCNc2ncnc3c2ncn3C2CC2)CC1 (stereo not shown) [Compound 19] ?
Found: 6.30

Lookup: Another molecule to check: CC(C)CCNc1ncnc2c1ncn2C1CC1 [Compound 32]
Found: 6.14

Lookup: Please give the result for C1=C(CCNc2ncnc3c2ncn3C2CC2)CCC1 [Compound 42] too.
Found: 6.21

Lookup: Subsequent entry: CCC1(CC)CCCN(c2ncnc3c2ncn3C2CC2)CC1 [Compound 28]
Found: 6.00

Lookup: How about C1=CC[C@@H](CNc2ncnc3c2ncn3C2CC2)CC1 [Compound 48] ?
Found: 6.80

Lookup: Now give it for C1=C(CCNc2ncnc3c2ncn3C2CC2)CCCC1 [Compound 37] too.
Found: 7.15

Lookup: Same for C1=C(CCNc2ncnc3[nH]ccc23)CCCCC1 [Compound 2]
Found: 7.15

Lookup: Clc1cccc(CNc2ncnc3c2ncn3C2CC2)c1 [Compound 34] , same question.
Found: 5.70

Lookup: Again, but for Fc1ccccc1-n1ncc2c(NCCC3=CCCCCC3)ncnc21 [Compound 5]
Found: 6.92

Lookup: And for C1=C(CCNc2ncnc3c2ncn3C2CC2)CCCCC1 [Compound 38] ?
Found: 6.47

Lookup: And what about the molecule N#CCCn1ncc2c(NCCC3=CCCCC3)ncnc21 [Compound 20] ?
Found: 6.22
